Assay: Cellular cytotoxicity, MTT assay, A549
Type: cell-based
Conditions: human, A549 cells, 48 h of treatment
Starred links: 1 amine or outer side, 2 acyl side, 3 side chain; linkers in the order of their positions; H or OH if unused. Non-standard residues stand in square brackets, D forms with d. Residues, ends and D or L forms follow the SMILES beside them. ξ: configuration not given here. X5 = CC(CC(C(=O)[*:2])N(C)[*:1])C(C)OC=O; X2 = CC(COC=O)CC(C(=O)[*:2])N(C)[*:1]; X4 = CC(O)C(C)CC(C(=O)[*:2])N(C)[*:1]; ξNle(4-Me,5-ene) = C=CC(C)CC(N)C(=O)O; X3 = CC(CO)CC(C(=O)[*:2])N(C)[*:1]; ξLeu(3ξ-OH) = CC(C)C(O)C(N)C(=O)O; NMeA = CN[CH](C)C(=O)O
Assign CC50 at 48 h to each entry below.
# output: number + unit

Given the entry C=CC(C)CC1NC(=O)C(CC(C)C)N(C)C(=O)C(C)N(C)C(=O)C(C(C)CC)NC(=O)C(C(O)C(C)C)NC(=O)C(C)N(C)C(=O)C(C)N(C)C1=O (centres unmarked) , report its measured CC50 at 48 h.
11.2 nM

Given the entry C=CC(C)CC1NC(=O)C(CC(C)C(C)OC=O)N(C)C(=O)C(C)N(C)C(=O)C(C(C)CC)NC(=O)C(C(O)C(C)C)NC(=O)C(C)N(C)C(=O)C(C)N(C)C1=O (centres unmarked) [Compound C7, comptonellin G] (cyclo([X5][ξNle(4-Me,5-ene)][NMeA][NMeA][ξLeu(3ξ-OH)]I[NMeA]); configuration not given here) , report its measured CC50 at 48 h.
80.6 nM

Given the entry C=CC(C)CC1NC(=O)C(CC(C)COC=O)N(C)C(=O)C(C)N(C)C(=O)C(C(C)CC)NC(=O)C(C(O)C(C)C)NC(=O)C(C)N(C)C(=O)C(C)N(C)C1=O (centres unmarked) [Compound C6, comptonellin F] (cyclo([X2][ξNle(4-Me,5-ene)][NMeA][NMeA][ξLeu(3ξ-OH)]I[NMeA]); configuration not given here) , report its measured CC50 at 48 h.
41 nM

Given the entry C=CC(C)CC1NC(=O)C(CC(C)CO)N(C)C(=O)C(C)N(C)C(=O)C(C(C)CC)NC(=O)C(C(O)C(C)C)NC(=O)C(C)N(C)C(=O)C(C)N(C)C1=O (centres unmarked) [Compound C4, comptonellin D] (cyclo([X3][ξNle(4-Me,5-ene)][NMeA][NMeA][ξLeu(3ξ-OH)]I[NMeA]); configuration not given here) , report its measured CC50 at 48 h.
52.8 nM

Given the entry C=CC(C)CC1NC(=O)C(CC(C)C(C)O)N(C)C(=O)C(C)N(C)C(=O)C(C(C)CC)NC(=O)C(C(O)C(C)C)NC(=O)C(C)N(C)C(=O)C(C)N(C)C1=O (centres unmarked) [Compound C5, comptonellin E] (cyclo([X4][ξNle(4-Me,5-ene)][NMeA][NMeA][ξLeu(3ξ-OH)]I[NMeA]); configuration not given here) , report its measured CC50 at 48 h.
99.8 nM

====

Assign IC50 to each entry below.
Test system: HCoV-229E-Luc
Assay: microbe, parasite or virus in culture
Assay type: cell-based, human alphacoronavirus HCoV-229-E
Conditions: Alphacoronavirus, Huh-7, 24 h, read-out: IC50 (nM) Huh7
Starred links: 1 amine or outer side, 2 acyl side, 3 side chain; linkers in the order of their positions; H or OH if unused. Non-standard residues stand in square brackets, D forms with d. Residues, ends and D or L forms follow the SMILES beside them. ξ: configuration not given here. X5 = CC(CC(C(=O)[*:2])N(C)[*:1])C(C)OC=O; ξNle(4-Me,5-ene) = C=CC(C)CC(N)C(=O)O; ξLeu(3ξ-OH) = CC(C)C(O)C(N)C(=O)O; NMeA = CN[CH](C)C(=O)O
# output: number + unit

What IC50 appears in the records for this compound with HCoV-229E-Luc? C=CC(C)CC1NC(=O)C(CC(C)C(C)OC=O)N(C)C(=O)C(C)N(C)C(=O)C(C(C)CC)NC(=O)C(C(O)C(C)C)NC(=O)C(C)N(C)C(=O)C(C)N(C)C1=O (centres unmarked) [Compound C7, comptonellin G] (cyclo([X5][ξNle(4-Me,5-ene)][NMeA][NMeA][ξLeu(3ξ-OH)]I[NMeA]); configuration not given here)
15 nM

What IC50 appears in the records for this compound with HCoV-229E-Luc? C=CC(C)CC1NC(=O)C(CC(C)C)N(C)C(=O)C(C)N(C)C(=O)C(C(C)CC)NC(=O)C(C(O)C(C)C)NC(=O)C(C)N(C)C(=O)C(C)N(C)C1=O (centres unmarked)
5 nM

====

Assay: Cellular cytotoxicity, MTT assay, Huh7
Assay type: cell-based
Settings: human, Huh7 cells, 48 h of treatment
Starred links: 1 amine or outer side, 2 acyl side, 3 side chain; linkers in the order of their positions; H or OH if unused. Non-standard residues stand in square brackets, D forms with d. Residues, ends and D or L forms follow the SMILES beside them. ξ: configuration not given here. X5 = CC(CC(C(=O)[*:2])N(C)[*:1])C(C)OC=O; X2 = CC(COC=O)CC(C(=O)[*:2])N(C)[*:1]; X4 = CC(O)C(C)CC(C(=O)[*:2])N(C)[*:1]; ξNle(4-Me,5-ene) = C=CC(C)CC(N)C(=O)O; X3 = CC(CO)CC(C(=O)[*:2])N(C)[*:1]; ξLeu(3ξ-OH) = CC(C)C(O)C(N)C(=O)O; NMeA = CN[CH](C)C(=O)O
measurementType: CC50 at 48 h

Given the entry C=CC(C)CC1NC(=O)C(CC(C)CO)N(C)C(=O)C(C)N(C)C(=O)C(C(C)CC)NC(=O)C(C(O)C(C)C)NC(=O)C(C)N(C)C(=O)C(C)N(C)C1=O (centres unmarked) [Compound C4, comptonellin D] (cyclo([X3][ξNle(4-Me,5-ene)][NMeA][NMeA][ξLeu(3ξ-OH)]I[NMeA]); configuration not given here) , report its measured CC50 at 48 h.
9.35 nM

Given the entry C=CC(C)CC1NC(=O)C(CC(C)C)N(C)C(=O)C(C)N(C)C(=O)C(C(C)CC)NC(=O)C(C(O)C(C)C)NC(=O)C(C)N(C)C(=O)C(C)N(C)C1=O (centres unmarked) , report its measured CC50 at 48 h.
4.9 nM

Given the entry C=CC(C)CC1NC(=O)C(CC(C)COC=O)N(C)C(=O)C(C)N(C)C(=O)C(C(C)CC)NC(=O)C(C(O)C(C)C)NC(=O)C(C)N(C)C(=O)C(C)N(C)C1=O (centres unmarked) [Compound C6, comptonellin F] (cyclo([X2][ξNle(4-Me,5-ene)][NMeA][NMeA][ξLeu(3ξ-OH)]I[NMeA]); configuration not given here) , report its measured CC50 at 48 h.
22.1 nM

Given the entry C=CC(C)CC1NC(=O)C(CC(C)C(C)OC=O)N(C)C(=O)C(C)N(C)C(=O)C(C(C)CC)NC(=O)C(C(O)C(C)C)NC(=O)C(C)N(C)C(=O)C(C)N(C)C1=O (centres unmarked) [Compound C7, comptonellin G] (cyclo([X5][ξNle(4-Me,5-ene)][NMeA][NMeA][ξLeu(3ξ-OH)]I[NMeA]); configuration not given here) , report its measured CC50 at 48 h.
93.9 nM

Given the entry C=CC(C)CC1NC(=O)C(CC(C)C(C)O)N(C)C(=O)C(C)N(C)C(=O)C(C(C)CC)NC(=O)C(C(O)C(C)C)NC(=O)C(C)N(C)C(=O)C(C)N(C)C1=O (centres unmarked) [Compound C5, comptonellin E] (cyclo([X4][ξNle(4-Me,5-ene)][NMeA][NMeA][ξLeu(3ξ-OH)]I[NMeA]); configuration not given here) , report its measured CC50 at 48 h.
31.9 nM

====

Assay: Cellular cytotoxicity, MTT assay, Vero E6
Type: cell-based
Settings: african green monkey, Vero E6 cells, 48 h of treatment
Starred links: 1 amine or outer side, 2 acyl side, 3 side chain; linkers in the order of their positions; H or OH if unused. Non-standard residues stand in square brackets, D forms with d. Residues, ends and D or L forms follow the SMILES beside them. ξ: configuration not given here. X5 = CC(CC(C(=O)[*:2])N(C)[*:1])C(C)OC=O; X2 = CC(COC=O)CC(C(=O)[*:2])N(C)[*:1]; X4 = CC(O)C(C)CC(C(=O)[*:2])N(C)[*:1]; ξNle(4-Me,5-ene) = C=CC(C)CC(N)C(=O)O; X3 = CC(CO)CC(C(=O)[*:2])N(C)[*:1]; ξLeu(3ξ-OH) = CC(C)C(O)C(N)C(=O)O; NMeA = CN[CH](C)C(=O)O
Note to self: CC50 at 48 h under 400 nM means met, ties and anything higher get not met.

Hi there! Is CC50 at 48 h for C=CC(C)CC1NC(=O)C(CC(C)CO)N(C)C(=O)C(C)N(C)C(=O)C(C(C)CC)NC(=O)C(C(O)C(C)C)NC(=O)C(C)N(C)C(=O)C(C)N(C)C1=O (stereo not drawn) [Compound C4, comptonellin D] (cyclo([X3][ξNle(4-Me,5-ene)][NMeA][NMeA][ξLeu(3ξ-OH)]I[NMeA]); configuration not given here) below 400 nM, do you know?
not met

Hi there! Is CC50 at 48 h for C=CC(C)CC1NC(=O)C(CC(C)C(C)OC=O)N(C)C(=O)C(C)N(C)C(=O)C(C(C)CC)NC(=O)C(C(O)C(C)C)NC(=O)C(C)N(C)C(=O)C(C)N(C)C1=O (stereo not drawn) [Compound C7, comptonellin G] (cyclo([X5][ξNle(4-Me,5-ene)][NMeA][NMeA][ξLeu(3ξ-OH)]I[NMeA]); configuration not given here) below 400 nM, do you know?
met

Hi there! Is CC50 at 48 h for C=CC(C)CC1NC(=O)C(CC(C)C(C)O)N(C)C(=O)C(C)N(C)C(=O)C(C(C)CC)NC(=O)C(C(O)C(C)C)NC(=O)C(C)N(C)C(=O)C(C)N(C)C1=O (stereo not drawn) [Compound C5, comptonellin E] (cyclo([X4][ξNle(4-Me,5-ene)][NMeA][NMeA][ξLeu(3ξ-OH)]I[NMeA]); configuration not given here) below 400 nM, do you know?
not met

Hi there! Is CC50 at 48 h for C=CC(C)CC1NC(=O)C(CC(C)COC=O)N(C)C(=O)C(C)N(C)C(=O)C(C(C)CC)NC(=O)C(C(O)C(C)C)NC(=O)C(C)N(C)C(=O)C(C)N(C)C1=O (stereo not drawn) [Compound C6, comptonellin F] (cyclo([X2][ξNle(4-Me,5-ene)][NMeA][NMeA][ξLeu(3ξ-OH)]I[NMeA]); configuration not given here) below 400 nM, do you know?
not met

Hi there! Is CC50 at 48 h for C=CC(C)CC1NC(=O)C(CC(C)C)N(C)C(=O)C(C)N(C)C(=O)C(C(C)CC)NC(=O)C(C(O)C(C)C)NC(=O)C(C)N(C)C(=O)C(C)N(C)C1=O (stereo not drawn) below 400 nM, do you know?
met
